Overview of reported IC50 across a group of compounds:
tested-on: full-length human PHD1 (Homo sapiens)
Construct: expressed in a baculovirus expression system as the full-length protein; FLAG (N); purchased Active Motif 81064; host or cells: baculovirus expression system
Sequence (Q96KS0 whole entry): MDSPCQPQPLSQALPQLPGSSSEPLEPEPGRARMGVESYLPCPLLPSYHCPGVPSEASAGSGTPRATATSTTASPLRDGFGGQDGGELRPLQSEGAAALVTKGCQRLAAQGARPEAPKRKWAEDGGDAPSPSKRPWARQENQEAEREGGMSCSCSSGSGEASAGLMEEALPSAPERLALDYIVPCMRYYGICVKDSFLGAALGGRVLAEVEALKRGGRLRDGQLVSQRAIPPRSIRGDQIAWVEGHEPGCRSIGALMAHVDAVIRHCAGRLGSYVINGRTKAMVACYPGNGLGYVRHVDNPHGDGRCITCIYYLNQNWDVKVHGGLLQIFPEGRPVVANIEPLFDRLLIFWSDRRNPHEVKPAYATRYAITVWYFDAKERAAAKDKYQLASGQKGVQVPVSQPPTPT
test-protocol: TR-FRET assay, PHD1 enzymatic IC50
Type: biochemical
condition-summary: 15 nM PHD1, 1 μM 2-OG
outcome-measure: IC50

[[record]]
compound = "CS(=O)(=O)Nc1ccc(-n2ncc(-c3ccc(C#N)cc3)c2O)nc1"
outcome_measure = "IC50"
result = "< 100 nM"

[[record]]
compound = "CCC(=O)c1ccc(-n2ncc(-c3ccc(C#N)cc3)c2O)nc1"
outcome_measure = "IC50"
result = "< 100 nM"

[[record]]
compound = "Cc1cc(C#N)ccc1-c1cnn(-c2ccc(S(C)(=O)=O)cn2)c1O"
outcome_measure = "IC50"
result = "< 100 nM"

[[record]]
compound = "CC(=O)NS(=O)(=O)c1ccc(-n2ncc(-c3ccc(C#N)cc3)c2O)nc1"
outcome_measure = "IC50"
result = "< 100 nM"

[[record]]
compound = "N#Cc1ccc(-c2cnn(-c3ccc(-c4ncco4)cn3)c2O)cc1"
outcome_measure = "IC50"
result = "< 100 nM"

[[record]]
compound = "CS(=O)(=O)c1ccc(-n2ncc(-c3ccc(Br)cc3)c2O)nc1"
outcome_measure = "IC50"
result = "< 100 nM"

[[record]]
compound = "N#Cc1ccc(-c2cnn(-c3ccc(Cl)cn3)c2O)cc1"
outcome_measure = "IC50"
result = "100 to 1000 nM"

[[record]]
compound = "CS(=N)(=O)c1ccc(-n2ncc(-c3ccc(C#N)cc3)c2O)nc1 (stereo not shown)"
outcome_measure = "IC50"
result = "< 100 nM"

[[record]]
compound = "N#Cc1ccc(-c2cnn(-c3ccc(NC(=O)N4CCOCC4)cn3)c2O)cc1"
outcome_measure = "IC50"
result = "≥ 10000 nM"

[[record]]
compound = "CCS(=O)(=O)Nc1ccc(-n2ncc(-c3ccc(C#N)cc3)c2O)nc1"
outcome_measure = "IC50"
result = "< 100 nM"

[[record]]
compound = "N#Cc1ccc(-c2cnn(-c3ccc(F)cn3)c2O)cc1"
outcome_measure = "IC50"
result = "< 100 nM"

[[record]]
compound = "N#Cc1ccc(-c2cnn(-c3ccc(NC(=O)N4CCNCC4)cn3)c2O)cc1"
outcome_measure = "IC50"
result = "≥ 10000 nM"

[[record]]
compound = "CS(=O)(=O)c1ccc(-n2ncc(-c3ccc(F)cc3)c2O)nc1"
outcome_measure = "IC50"
result = "< 100 nM"

[[record]]
compound = "N#Cc1ccc(-c2cnn(-c3ccc(N4CCCC4=O)cn3)c2O)cc1"
outcome_measure = "IC50"
result = "< 100 nM"

[[record]]
compound = "N#Cc1ccc(-c2cnn(-c3ccc(-n4cccn4)cn3)c2O)cc1"
outcome_measure = "IC50"
result = "< 100 nM"

[[record]]
compound = "CP(C)(=O)c1ccc(-n2ncc(-c3ccc(C#N)cc3)c2O)nc1"
outcome_measure = "IC50"
result = "< 100 nM"

[[record]]
compound = "N#Cc1ccc(-c2cnn(-c3ccc(Br)cn3)c2O)cc1"
outcome_measure = "IC50"
result = "100 to 1000 nM"

[[record]]
compound = "N#Cc1ccc(-c2cnn(-c3ccc(C(F)(F)F)cn3)c2O)cc1"
outcome_measure = "IC50"
result = "100 to 1000 nM"

[[record]]
compound = "CS(=O)(=O)c1ccc(-n2ncc(-c3ccc(Cl)cn3)c2O)nc1"
outcome_measure = "IC50"
result = "100 to 1000 nM"


---

tested-on: full-length human PHD2 (Homo sapiens)
Construct: The PHD2 construct contained amino acids 1 to 426 of PHD2; His tag (N, cleaved yes); TEV protease cleavage site (N, cleaved yes); host or cells: Sf9 insect cells (baculovirus)
test-protocol: TR-FRET assay, PHD2 enzymatic IC50
Format: biochemical
condition-summary: 5 nM PHD2, 1 μM 2-OG
outcome-measure: IC50

[[record]]
compound = "CS(=O)(=O)c1ccc(-n2ncc(-c3ccc(F)cc3)c2O)nc1 [Compound 20]"
result = "< 100 nM"

[[record]]
compound = "N#Cc1ccc(-c2cnn(-c3ccc(Cl)cn3)c2O)cc1 [Compound 18]"
result = "100 to 1000 nM"

[[record]]
compound = "CC(=O)NS(=O)(=O)c1ccc(-n2ncc(-c3ccc(C#N)cc3)c2O)nc1 [Compound 29]"
result = "< 100 nM"

[[record]]
compound = "CCC(=O)c1ccc(-n2ncc(-c3ccc(C#N)cc3)c2O)nc1 [Compound 2]"
result = "< 100 nM"

[[record]]
compound = "N#Cc1ccc(-c2cnn(-c3ccc(NC(=O)N4CCOCC4)cn3)c2O)cc1 [Compound 28]"
result = "≥ 10000 nM"


---

Overview of reported pIC50 across a group of compounds:
tested-on: full-length human PHD3 (Homo sapiens)
Sequence (Q9H6Z9 whole entry): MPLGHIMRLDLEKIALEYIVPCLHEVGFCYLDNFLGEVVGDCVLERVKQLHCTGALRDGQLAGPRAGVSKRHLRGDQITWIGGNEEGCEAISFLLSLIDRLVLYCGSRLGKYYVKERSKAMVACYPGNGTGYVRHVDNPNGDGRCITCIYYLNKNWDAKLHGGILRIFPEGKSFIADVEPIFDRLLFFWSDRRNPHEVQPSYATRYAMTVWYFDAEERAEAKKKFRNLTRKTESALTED
pIC50: −log10 of the molar value.
outcome-measure: pIC50

[[record]]
smiles_string = "CS(=O)(=O)Nc1ccc(-n2ncc(-c3ccc(C#N)cc3)c2O)nc1"
result = "> 7.00"

[[record]]
smiles_string = "N#Cc1ccc(-c2cnn(-c3ccc(N4CCCC4=O)cn3)c2O)cc1"
result = "> 7.00"

[[record]]
smiles_string = "N#Cc1ccc(-c2cnn(-c3ccc(-c4nccs4)cn3)c2O)cc1"
result = "> 7.00"

[[record]]
smiles_string = "CS(=O)(=O)c1ccc(-n2ncc(-c3ccc(F)cc3)c2O)nc1"
result = "≤ 5.00"

[[record]]
smiles_string = "N#Cc1ccc(-c2cnn(-c3ccc(-n4cccn4)cn3)c2O)cc1"
result = "6.00 to 7.00"

[[record]]
smiles_string = "CS(=O)(=O)c1ccc(-n2ncc(-c3ccc(C#N)cc3)c2O)nc1"
result = "> 7.00"

[[record]]
smiles_string = "CC(=O)c1ccc(-n2ncc(-c3ccc(C#N)cc3)c2O)nc1"
result = "> 7.00"

[[record]]
smiles_string = "CS(=O)(=O)c1ccc(-n2ncc(-c3ccc(Br)cc3)c2O)nc1"
result = "6.00 to 7.00"

[[record]]
smiles_string = "CCC(=O)c1ccc(-n2ncc(-c3ccc(C#N)cc3)c2O)nc1"
result = "> 7.00"


---

tested-on: full-length human PHD2 (Homo sapiens, UniProt Q9GZT9)
Construct: The PHD2 construct contained amino acids 1 to 426 of PHD2; His tag (N, cleaved yes); TEV protease cleavage site (N, cleaved yes)
Sequence (Q9GZT9 whole entry, the tested form may be a part): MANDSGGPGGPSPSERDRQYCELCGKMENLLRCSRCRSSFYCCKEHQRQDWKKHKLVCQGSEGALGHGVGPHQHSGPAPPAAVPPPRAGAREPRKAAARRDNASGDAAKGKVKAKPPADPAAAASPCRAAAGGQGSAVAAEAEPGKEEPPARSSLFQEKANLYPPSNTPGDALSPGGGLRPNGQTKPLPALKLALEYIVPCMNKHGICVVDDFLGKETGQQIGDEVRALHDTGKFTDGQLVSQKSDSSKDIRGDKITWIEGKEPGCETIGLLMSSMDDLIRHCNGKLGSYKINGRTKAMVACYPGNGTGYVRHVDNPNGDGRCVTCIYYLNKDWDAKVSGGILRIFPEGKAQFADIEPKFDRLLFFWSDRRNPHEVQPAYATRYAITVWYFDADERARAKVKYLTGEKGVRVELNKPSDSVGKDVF
test-protocol: TR-FRET assay, PHD2 enzymatic IC50
condition-summary: 5 nM PHD2, 1 μM 2-OG
Overview of reported IC50 across a group of compounds:
outcome-measure: IC50

[[record]]
smiles_string = "COc1cc(-c2cnn(-c3ccc(S(C)(=O)=O)cn3)c2O)ccn1"
result = "< 100 nM"

[[record]]
smiles_string = "CP(C)(=O)c1ccc(-n2ncc(-c3ccc(C#N)cc3)c2O)nc1"
result = "< 100 nM"

[[record]]
smiles_string = "CS(=O)(=O)Nc1ccc(-n2ncc(-c3ccc(C#N)cc3)c2O)nc1"
result = "< 100 nM"

